Taken from patent US20260242478A1.

biological target: T1, PSMA Fab (biotinylated (site not given)); assay: phage ELISA on captured biotinylated PSMA Fab, wells pre-incubated with PSMA antigen (competitor: PSMA); anti-M13 HRP detection
T1 construct: Biotinylated PSMA Fab captured on neutravidin plates in the phage ELISA; also called Anti-PSMA Fab; 006 PSMA Fab
Where no end group is shown, it is not given here.
# Phage binding ELISA signal, Anti-PSMA Fab in presence of PSMA annotations
MEASURED QUANTITY: Phage binding ELISA signal, Anti-PSMA Fab in presence of PSMA

>>> val("VEKWCIPQWMCSMD (peptide, not shown: large carriers, cysteine pairing not given here; also: displayed on phage as fusion to pIII, pIII and linker sequence not given here, Clonal phage of the Peptide-180 optimisation library, tested as crude supernatant) [Phage-2477]")
0.0715
>>> val("YHNWCVPQWMCVGL (peptide, not shown: large carriers, cysteine pairing not given here; also: displayed on phage as fusion to pIII, pIII and linker sequence not given here, Clonal phage of the Peptide-180 optimisation library, tested as crude supernatant) [Phage-2476]")
0.127
>>> val("GFPMCKPLWMCENL (peptide, not shown: large carriers, cysteine pairing not given here; also: displayed on phage as fusion to pIII, pIII and linker sequence not given here, Clonal phage of the Peptide-180 optimisation library, tested as crude supernatant) [Phage-2479]")
0.0667
>>> val("DFHMCTPRWMCEGM (peptide, not shown: large carriers, cysteine pairing not given here; also: displayed on phage as fusion to pIII, pIII and linker sequence not given here, Clonal phage of the Peptide-180 optimisation library, tested as crude supernatant) [Phage-2474]")
0.0622
>>> val("MEKWCIPDWMCLGN (peptide, not shown: large carriers, cysteine pairing not given here; also: displayed as fusion to phage pIII, Clonal phage of the Peptide-180 optimisation library, tested as crude supernatant) [Phage-2471]")
0.0809
>>> val("VSKWCTPAWMCSAM (peptide, not shown: large carriers, cysteine pairing not given here; also: displayed as fusion to phage pIII, Clonal phage of the Peptide-180 optimisation library, tested as crude supernatant) [Phage-2469]")
0.099
>>> val("VVKWCTPSWMCTGF (peptide, not shown: large carriers, cysteine pairing not given here; also: displayed as fusion to phage pIII, Clonal phage of the Peptide-180 optimisation library, tested as crude supernatant) [Phage-2466]")
0.0837
>>> val("FDKWCIPPWMCVGP (peptide, not shown: large carriers, cysteine pairing not given here; also: displayed on phage as fusion to pIII, pIII and linker sequence not given here, Clonal phage of the Peptide-180 optimisation library, tested as crude supernatant) [Phage-2472]")
0.0689
